Entries with reported Kd on Mitogen-activated protein kinase kinase kinase 4 (Homo sapiens, UniProt Q9Y6R4)
Sequence (Q9Y6R4 whole entry): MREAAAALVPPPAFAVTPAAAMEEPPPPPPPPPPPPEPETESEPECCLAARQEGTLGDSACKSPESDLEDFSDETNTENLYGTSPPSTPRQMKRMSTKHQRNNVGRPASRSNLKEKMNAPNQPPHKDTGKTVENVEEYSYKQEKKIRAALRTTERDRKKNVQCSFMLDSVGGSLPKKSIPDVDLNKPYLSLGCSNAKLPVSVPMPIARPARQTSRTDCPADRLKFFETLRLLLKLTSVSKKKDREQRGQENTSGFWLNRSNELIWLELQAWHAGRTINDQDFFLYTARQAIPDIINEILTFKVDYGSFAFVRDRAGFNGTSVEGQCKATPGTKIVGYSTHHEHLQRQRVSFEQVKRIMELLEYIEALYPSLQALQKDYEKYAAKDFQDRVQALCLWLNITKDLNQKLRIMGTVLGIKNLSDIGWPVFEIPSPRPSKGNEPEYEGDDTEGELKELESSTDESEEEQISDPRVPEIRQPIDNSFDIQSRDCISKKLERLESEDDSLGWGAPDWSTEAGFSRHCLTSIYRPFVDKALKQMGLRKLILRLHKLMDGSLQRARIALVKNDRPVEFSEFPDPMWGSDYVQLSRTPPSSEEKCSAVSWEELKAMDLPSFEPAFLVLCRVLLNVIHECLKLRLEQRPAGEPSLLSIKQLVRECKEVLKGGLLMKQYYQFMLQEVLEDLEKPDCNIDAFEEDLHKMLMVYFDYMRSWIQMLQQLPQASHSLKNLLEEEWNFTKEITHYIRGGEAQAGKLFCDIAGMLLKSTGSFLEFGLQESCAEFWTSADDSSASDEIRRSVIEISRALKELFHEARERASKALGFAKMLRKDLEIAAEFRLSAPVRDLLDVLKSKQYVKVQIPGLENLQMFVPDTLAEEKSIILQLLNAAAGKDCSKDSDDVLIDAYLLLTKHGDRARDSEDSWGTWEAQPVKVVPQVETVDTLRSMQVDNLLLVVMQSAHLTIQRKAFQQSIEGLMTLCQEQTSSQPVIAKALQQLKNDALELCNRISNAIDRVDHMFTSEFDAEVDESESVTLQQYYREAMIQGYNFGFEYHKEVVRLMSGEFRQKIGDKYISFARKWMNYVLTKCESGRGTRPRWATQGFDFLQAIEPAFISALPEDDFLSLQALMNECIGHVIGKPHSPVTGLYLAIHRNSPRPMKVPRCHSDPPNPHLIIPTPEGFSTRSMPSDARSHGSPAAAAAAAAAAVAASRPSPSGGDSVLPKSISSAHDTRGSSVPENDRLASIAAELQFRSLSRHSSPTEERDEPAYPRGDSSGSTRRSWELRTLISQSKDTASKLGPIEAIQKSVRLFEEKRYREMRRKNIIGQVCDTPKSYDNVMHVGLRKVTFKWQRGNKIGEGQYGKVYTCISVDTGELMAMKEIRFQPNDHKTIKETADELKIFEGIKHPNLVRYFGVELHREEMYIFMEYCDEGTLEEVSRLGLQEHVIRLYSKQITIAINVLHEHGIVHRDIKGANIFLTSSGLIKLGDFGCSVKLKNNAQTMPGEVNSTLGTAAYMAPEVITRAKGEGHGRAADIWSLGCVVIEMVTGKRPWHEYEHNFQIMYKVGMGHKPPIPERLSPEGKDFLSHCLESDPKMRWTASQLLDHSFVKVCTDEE
Calls of active or inactive are those of the source.

Reported Kd for COc1cc2nccc(Oc3ccc(NC(=O)C4(C(=O)Nc5ccc(F)cc5)CC4)cc3)c2cc1OC [CABOZANTINIB] was > 30 µM (inactive)

Reported Kd for COc1cc2ncnc(Nc3ccc(O)cc3)c2cc1OC was > 30 µM (inactive)

Reported Kd for COc1cccc(Nc2ncnn3ccc(CN4CC[C@@H](N)[C@H](O)C4)c23)c1 was > 30 µM (inactive)

Reported Kd for CNC(=O)c1cccc(-c2ccc3c(N4CCOC[C@@H]4C)nc(N4CCOC[C@@H]4C)nc3n2)c1 was > 30 µM (inactive)

Reported Kd for O=S(=O)(c1cccc2cnccc12)N1CCCNCC1 was > 30 µM (inactive)

Reported Kd for C=CC(=O)Nc1cccc(Nc2nc(Nc3ccc(N4CCN(C(C)=O)CC4)cc3OC)ncc2C(F)(F)F)c1 was > 30 µM (inactive)

Reported Kd for c1cc(OCCN2CCCCC2)cc(-c2n[nH]c3ccc(-c4nc[nH]n4)cc23)c1 was > 30 µM (inactive)

Reported Kd for C=CC(=O)Nc1cc(Nc2nccc(-c3cn(C)c4ccccc34)n2)c(OC)cc1N(C)CCN(C)C was > 30 µM (inactive)
